target: hERG (Homo sapiens); test: hERG manual patch-clamp in HEK293 cells; format: cell-based; conditions: HEK293 cells expressing hERG
Sequence (Q12809 whole entry): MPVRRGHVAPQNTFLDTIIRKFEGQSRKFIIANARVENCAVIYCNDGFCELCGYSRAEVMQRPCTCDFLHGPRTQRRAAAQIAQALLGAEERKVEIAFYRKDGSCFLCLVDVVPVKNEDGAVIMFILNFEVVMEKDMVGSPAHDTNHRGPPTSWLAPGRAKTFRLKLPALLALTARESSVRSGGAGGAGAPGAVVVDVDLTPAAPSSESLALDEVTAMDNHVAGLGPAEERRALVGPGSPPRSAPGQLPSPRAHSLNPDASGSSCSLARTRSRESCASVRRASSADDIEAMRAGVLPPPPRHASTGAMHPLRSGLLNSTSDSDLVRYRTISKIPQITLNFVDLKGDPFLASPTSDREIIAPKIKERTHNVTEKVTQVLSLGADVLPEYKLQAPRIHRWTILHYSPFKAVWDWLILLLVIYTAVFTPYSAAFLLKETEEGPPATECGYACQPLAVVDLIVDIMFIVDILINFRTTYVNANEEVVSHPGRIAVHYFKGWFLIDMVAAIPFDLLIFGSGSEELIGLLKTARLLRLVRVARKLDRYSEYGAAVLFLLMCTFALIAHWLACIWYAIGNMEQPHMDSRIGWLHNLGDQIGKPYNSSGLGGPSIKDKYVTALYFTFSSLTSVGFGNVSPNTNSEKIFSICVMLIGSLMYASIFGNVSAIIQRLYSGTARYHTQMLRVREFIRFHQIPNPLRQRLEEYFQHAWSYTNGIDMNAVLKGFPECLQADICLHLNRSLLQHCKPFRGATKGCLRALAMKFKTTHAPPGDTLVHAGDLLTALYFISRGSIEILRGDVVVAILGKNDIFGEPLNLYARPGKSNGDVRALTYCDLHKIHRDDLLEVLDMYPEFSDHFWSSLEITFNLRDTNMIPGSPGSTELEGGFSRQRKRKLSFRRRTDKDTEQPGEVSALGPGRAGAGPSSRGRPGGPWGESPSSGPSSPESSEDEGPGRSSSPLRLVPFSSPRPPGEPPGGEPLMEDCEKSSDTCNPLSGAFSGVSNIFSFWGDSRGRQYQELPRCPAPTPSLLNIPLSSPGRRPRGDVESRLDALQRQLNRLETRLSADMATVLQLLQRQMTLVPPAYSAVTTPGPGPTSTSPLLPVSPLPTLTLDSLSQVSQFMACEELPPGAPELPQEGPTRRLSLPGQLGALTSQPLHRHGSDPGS
Items are presented alongside their recorded inhibition at 10 µM.
Give a bare numeral; the unit % is implied.

Record summary for Cc1cc(C)c2nc(C)cc(NCCc3ccccc3)c2c1 [3 a] : reported inhibition at 10 µM = 100

Record summary for OC1(c2ccc(Cl)cc2)CCN(Cc2c[nH]c3ccccc23)CC1 [2 a] : reported inhibition at 10 µM = 100

Record summary for NC(N)=NC(=O)c1nc(Cl)c(N2CCCCCC2)nc1N [1 a] : reported inhibition at 10 µM = 92

###

assay: AlamarBlue cytotoxicity assay in human sperm; type: cell-based; conditions: human, human sperm
Items are presented alongside their recorded IC50 at 3 h.

In the examples that follow, each entry is paired with its recorded IC50 at 3 h.
[[record]]
molecule = "COCC(=O)O[C@]1(CCN(C)CCCc2nc3ccccc3[nH]2)CCc2cc(F)ccc2[C@@H]1C(C)C [Mibefradil, reference compound]"
test_result = "25 µM"

[[record]]
molecule = "NC(N)=NC(=O)c1nc(Cl)c(N2CCCCCC2)nc1N"
test_result = "> 100 µM"

[[record]]
molecule = "Cc1cc(C)c2nc(C)cc(NCCc3ccccc3)c2c1"
test_result = "> 100 µM"

[[record]]
molecule = "N=c1n(CCN2CCCCC2)c2ccccc2n1CC(O)c1cccc(Br)c1 (centres unmarked)"
test_result = "> 100 µM"

[[record]]
molecule = "O=C(Nc1cccc(C(F)(F)F)c1)N1CCN(c2cccc(C(F)(F)F)c2)CC1"
test_result = "> 100 µM"

[[record]]
molecule = "O=c1c2ccccc2c(Cc2ccc(Cl)cc2)nn1C1CCCNCC1 (centres unmarked)"
test_result = "84 µM"


Record summary for CCN(CC)CCNC(=O)C1CCN(c2ccc3nnc(-c4cccc(C)c4)n3n2)CC1 : reported IC50 at 3 h = > 100 µM

Record summary for OC1(c2ccc(Cl)cc2)CCN(Cc2c[nH]c3ccccc23)CC1 : reported IC50 at 3 h = > 100 µM

###

target: CatSper (Homo sapiens, UniProt Q7RTX7+Q86XQ3+Q8NEC5+Q96P56); experiment: Whole cell patch clamp electrophysiology of ICatSper in human sperm; assay type: cell-based; details: read-out: Inhibition (block) of the inward ICatSper
recorded_metric: inhibition at 10 µM (%)
Give a bare numeral; the unit % is implied.

In the examples that follow, each entry is paired with its recorded inhibition at 10 µM.
[[record]]
compound = "N=c1n(CCN2CCCCC2)c2ccccc2n1CC(O)c1cccc(Br)c1 (stereo not shown)"
test_result = 47

[[record]]
compound = "OC1(c2ccc(Cl)cc2)CCN(Cc2c[nH]c3ccccc23)CC1"
test_result = 65

[[record]]
compound = "O=C(Nc1cccc(C(F)(F)F)c1)N1CCN(c2cccc(C(F)(F)F)c2)CC1"
test_result = 84


Note: attention shifts to another entry.
Record summary for CCN(CC)CCNC(=O)C1CCN(c2ccc3nnc(-c4cccc(C)c4)n3n2)CC1 : reported inhibition at 10 µM = 89

###

molecular target: human SLO3 and LRRC52 (Homo sapiens); type: cell-based; conditions: 10 μM, +60 mV, n=5 cells; mean±SD in text
Sequence (A8MYU2 whole entry): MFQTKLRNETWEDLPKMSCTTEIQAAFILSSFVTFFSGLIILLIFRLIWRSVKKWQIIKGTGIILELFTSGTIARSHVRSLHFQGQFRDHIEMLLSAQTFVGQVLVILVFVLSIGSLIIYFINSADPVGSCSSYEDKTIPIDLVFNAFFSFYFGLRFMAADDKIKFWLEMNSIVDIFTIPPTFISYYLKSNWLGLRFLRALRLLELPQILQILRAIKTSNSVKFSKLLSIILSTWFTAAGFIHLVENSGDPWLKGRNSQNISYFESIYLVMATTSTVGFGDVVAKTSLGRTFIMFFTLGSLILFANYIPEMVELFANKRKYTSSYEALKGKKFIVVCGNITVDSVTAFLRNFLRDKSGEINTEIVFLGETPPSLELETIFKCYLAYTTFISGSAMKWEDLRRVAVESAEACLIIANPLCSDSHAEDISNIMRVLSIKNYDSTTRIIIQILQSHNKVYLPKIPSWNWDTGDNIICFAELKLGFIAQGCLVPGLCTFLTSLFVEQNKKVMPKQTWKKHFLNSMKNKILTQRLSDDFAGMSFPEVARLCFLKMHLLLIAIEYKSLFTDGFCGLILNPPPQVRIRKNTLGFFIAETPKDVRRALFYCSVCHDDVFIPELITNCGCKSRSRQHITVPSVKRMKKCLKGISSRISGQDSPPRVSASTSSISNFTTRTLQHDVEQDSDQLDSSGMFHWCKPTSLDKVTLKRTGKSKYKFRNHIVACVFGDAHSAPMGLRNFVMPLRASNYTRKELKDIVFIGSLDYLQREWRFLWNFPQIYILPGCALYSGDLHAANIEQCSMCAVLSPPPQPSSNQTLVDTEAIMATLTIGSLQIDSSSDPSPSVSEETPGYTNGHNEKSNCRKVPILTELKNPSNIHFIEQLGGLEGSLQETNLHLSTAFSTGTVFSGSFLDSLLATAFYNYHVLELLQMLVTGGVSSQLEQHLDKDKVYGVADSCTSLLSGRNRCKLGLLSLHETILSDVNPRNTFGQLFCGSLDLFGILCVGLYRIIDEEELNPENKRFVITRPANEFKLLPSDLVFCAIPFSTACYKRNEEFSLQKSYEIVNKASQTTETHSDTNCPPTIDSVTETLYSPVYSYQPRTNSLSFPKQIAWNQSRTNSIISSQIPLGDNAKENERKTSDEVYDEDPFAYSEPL
Sequence (Q8N7C0 24-313 partner): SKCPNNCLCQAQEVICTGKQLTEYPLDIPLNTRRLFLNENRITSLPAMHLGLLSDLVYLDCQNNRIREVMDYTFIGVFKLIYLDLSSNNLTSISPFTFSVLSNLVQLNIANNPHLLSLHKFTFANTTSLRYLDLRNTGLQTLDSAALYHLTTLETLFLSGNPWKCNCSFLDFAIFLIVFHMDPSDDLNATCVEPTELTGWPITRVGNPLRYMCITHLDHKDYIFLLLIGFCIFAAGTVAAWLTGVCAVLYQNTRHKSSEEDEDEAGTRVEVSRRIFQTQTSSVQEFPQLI
recorded_metric: hSLO3 current in the presence of compound, % of control

Observed hSLO3 current in the presence of compound, % of control on human SLO3 and LRRC52 (Homo sapiens), entry N=c1n(CCN2CCCCC2)c2ccccc2n1CC(O)c1cccc(Br)c1 (stereo not shown) , equals 83.2±7.8 % of control

Observed hSLO3 current in the presence of compound, % of control on human SLO3 and LRRC52 (Homo sapiens), entry NC(N)=NC(=O)c1nc(Cl)c(N2CCCCCC2)nc1N , equals 101.5±6.4 % of control

Observed hSLO3 current in the presence of compound, % of control on human SLO3 and LRRC52 (Homo sapiens), entry Cc1cc(C)c2nc(C)cc(NCCc3ccccc3)c2c1 , equals 58.5±12.5 % of control

Observed hSLO3 current in the presence of compound, % of control on human SLO3 and LRRC52 (Homo sapiens), entry O=c1c2ccccc2c(Cc2ccc(Cl)cc2)nn1C1CCCNCC1 (stereo not shown) , equals 66.3±8.5 % of control

###

Items are presented alongside their recorded IC50 at 7 h.
experiment: AlamarBlue cytotoxicity assay in IMR-90 fibroblasts; format: cell-based, human; conditions: human, IMR-90 lung fibroblast cells

In the examples that follow, each entry is paired with its recorded IC50 at 7 h.
[[record]]
compound = "O=C(Nc1cccc(C(F)(F)F)c1)N1CCN(c2cccc(C(F)(F)F)c2)CC1"
recorded_metric = "IC50 at 7 h"
test_result = "> 100 µM"

[[record]]
compound = "COCC(=O)O[C@]1(CCN(C)CCCc2nc3ccccc3[nH]2)CCc2cc(F)ccc2[C@@H]1C(C)C [Mibefradil, reference compound]"
recorded_metric = "IC50 at 7 h"
test_result = "22 µM"

[[record]]
compound = "OC1(c2ccc(Cl)cc2)CCN(Cc2c[nH]c3ccccc23)CC1"
recorded_metric = "IC50 at 7 h"
test_result = "> 100 µM"

[[record]]
compound = "NC(N)=NC(=O)c1nc(Cl)c(N2CCCCCC2)nc1N"
recorded_metric = "IC50 at 7 h"
test_result = "> 100 µM"


Record summary for Cc1cc(C)c2nc(C)cc(NCCc3ccccc3)c2c1 : reported IC50 at 7 h = 96 µM

Record summary for N=c1n(CCN2CCCCC2)c2ccccc2n1CC(O)c1cccc(Br)c1 (centres unmarked) : reported IC50 at 7 h = 83 µM

Record summary for CCN(CC)CCNC(=O)C1CCN(c2ccc3nnc(-c4cccc(C)c4)n3n2)CC1 : reported IC50 at 7 h = > 100 µM

Record summary for O=c1c2ccccc2c(Cc2ccc(Cl)cc2)nn1C1CCCNCC1 (centres unmarked) : reported IC50 at 7 h = 68 µM

###

target: CatSper (Homo sapiens, UniProt Q7RTX7+Q86XQ3+Q8NEC5+Q96P56); assay: Whole cell patch clamp electrophysiology of ICatSper in human sperm; assay type: cell-based; conditions: read-out: Inhibition at 10 μM [%] CatSper
Items are presented alongside their recorded inhibition at 10 µM.
Please format your answer as a value with the unit trailing.

In the examples that follow, each entry is paired with its recorded inhibition at 10 µM.
[[record]]
compound = "O=c1c2ccccc2c(Cc2ccc(Cl)cc2)nn1C1CCCNCC1 (stereo not shown)"
measured_on = "CatSper (Homo sapiens, UniProt Q7RTX7+Q86XQ3+Q8NEC5+Q96P56)"
recorded_metric = "inhibition at 10 µM"
test_result = "100%"

[[record]]
compound = "OC1(c2ccc(Cl)cc2)CCN(Cc2c[nH]c3ccccc23)CC1"
measured_on = "CatSper (Homo sapiens, UniProt Q7RTX7+Q86XQ3+Q8NEC5+Q96P56)"
recorded_metric = "inhibition at 10 µM"
test_result = "73%"

[[record]]
compound = "Cc1cc(C)c2nc(C)cc(NCCc3ccccc3)c2c1"
measured_on = "CatSper (Homo sapiens, UniProt Q7RTX7+Q86XQ3+Q8NEC5+Q96P56)"
recorded_metric = "inhibition at 10 µM"
test_result = "96%"


Note: attention shifts to another entry.
Record summary for O=C(Nc1cccc(C(F)(F)F)c1)N1CCN(c2cccc(C(F)(F)F)c2)CC1 : reported inhibition at 10 µM = 83%

###

molecular target: hNav1.5 (Homo sapiens, UniProt Q14524); experiment: hNav1.5 manual patch-clamp in CHO cells; format: cell-based; settings: read-out: Inhibition at 10 μM [%] hNav1.5
recorded_metric: inhibition at 10 µM

[[record]]
compound = "Cc1cc(C)c2nc(C)cc(NCCc3ccccc3)c2c1 [3 a]"
test_result = "94%"

[[record]]
compound = "NC(N)=NC(=O)c1nc(Cl)c(N2CCCCCC2)nc1N [1 a]"
test_result = "68%"

[[record]]
compound = "O=C(Nc1cccc(C(F)(F)F)c1)N1CCN(c2cccc(C(F)(F)F)c2)CC1 [4 a]"
test_result = "95%"


Record summary for OC1(c2ccc(Cl)cc2)CCN(Cc2c[nH]c3ccccc23)CC1 [2 a] : reported inhibition at 10 µM = 77%

###

biological target: hCav1.2 (Homo sapiens); assay: hCav1.2 FLIPR assay in stably expressing cell line; assay type: cell-based; details: read-out: Inhibition at 10 μM [%] hCav1.2
Sequence (Q13936 whole entry): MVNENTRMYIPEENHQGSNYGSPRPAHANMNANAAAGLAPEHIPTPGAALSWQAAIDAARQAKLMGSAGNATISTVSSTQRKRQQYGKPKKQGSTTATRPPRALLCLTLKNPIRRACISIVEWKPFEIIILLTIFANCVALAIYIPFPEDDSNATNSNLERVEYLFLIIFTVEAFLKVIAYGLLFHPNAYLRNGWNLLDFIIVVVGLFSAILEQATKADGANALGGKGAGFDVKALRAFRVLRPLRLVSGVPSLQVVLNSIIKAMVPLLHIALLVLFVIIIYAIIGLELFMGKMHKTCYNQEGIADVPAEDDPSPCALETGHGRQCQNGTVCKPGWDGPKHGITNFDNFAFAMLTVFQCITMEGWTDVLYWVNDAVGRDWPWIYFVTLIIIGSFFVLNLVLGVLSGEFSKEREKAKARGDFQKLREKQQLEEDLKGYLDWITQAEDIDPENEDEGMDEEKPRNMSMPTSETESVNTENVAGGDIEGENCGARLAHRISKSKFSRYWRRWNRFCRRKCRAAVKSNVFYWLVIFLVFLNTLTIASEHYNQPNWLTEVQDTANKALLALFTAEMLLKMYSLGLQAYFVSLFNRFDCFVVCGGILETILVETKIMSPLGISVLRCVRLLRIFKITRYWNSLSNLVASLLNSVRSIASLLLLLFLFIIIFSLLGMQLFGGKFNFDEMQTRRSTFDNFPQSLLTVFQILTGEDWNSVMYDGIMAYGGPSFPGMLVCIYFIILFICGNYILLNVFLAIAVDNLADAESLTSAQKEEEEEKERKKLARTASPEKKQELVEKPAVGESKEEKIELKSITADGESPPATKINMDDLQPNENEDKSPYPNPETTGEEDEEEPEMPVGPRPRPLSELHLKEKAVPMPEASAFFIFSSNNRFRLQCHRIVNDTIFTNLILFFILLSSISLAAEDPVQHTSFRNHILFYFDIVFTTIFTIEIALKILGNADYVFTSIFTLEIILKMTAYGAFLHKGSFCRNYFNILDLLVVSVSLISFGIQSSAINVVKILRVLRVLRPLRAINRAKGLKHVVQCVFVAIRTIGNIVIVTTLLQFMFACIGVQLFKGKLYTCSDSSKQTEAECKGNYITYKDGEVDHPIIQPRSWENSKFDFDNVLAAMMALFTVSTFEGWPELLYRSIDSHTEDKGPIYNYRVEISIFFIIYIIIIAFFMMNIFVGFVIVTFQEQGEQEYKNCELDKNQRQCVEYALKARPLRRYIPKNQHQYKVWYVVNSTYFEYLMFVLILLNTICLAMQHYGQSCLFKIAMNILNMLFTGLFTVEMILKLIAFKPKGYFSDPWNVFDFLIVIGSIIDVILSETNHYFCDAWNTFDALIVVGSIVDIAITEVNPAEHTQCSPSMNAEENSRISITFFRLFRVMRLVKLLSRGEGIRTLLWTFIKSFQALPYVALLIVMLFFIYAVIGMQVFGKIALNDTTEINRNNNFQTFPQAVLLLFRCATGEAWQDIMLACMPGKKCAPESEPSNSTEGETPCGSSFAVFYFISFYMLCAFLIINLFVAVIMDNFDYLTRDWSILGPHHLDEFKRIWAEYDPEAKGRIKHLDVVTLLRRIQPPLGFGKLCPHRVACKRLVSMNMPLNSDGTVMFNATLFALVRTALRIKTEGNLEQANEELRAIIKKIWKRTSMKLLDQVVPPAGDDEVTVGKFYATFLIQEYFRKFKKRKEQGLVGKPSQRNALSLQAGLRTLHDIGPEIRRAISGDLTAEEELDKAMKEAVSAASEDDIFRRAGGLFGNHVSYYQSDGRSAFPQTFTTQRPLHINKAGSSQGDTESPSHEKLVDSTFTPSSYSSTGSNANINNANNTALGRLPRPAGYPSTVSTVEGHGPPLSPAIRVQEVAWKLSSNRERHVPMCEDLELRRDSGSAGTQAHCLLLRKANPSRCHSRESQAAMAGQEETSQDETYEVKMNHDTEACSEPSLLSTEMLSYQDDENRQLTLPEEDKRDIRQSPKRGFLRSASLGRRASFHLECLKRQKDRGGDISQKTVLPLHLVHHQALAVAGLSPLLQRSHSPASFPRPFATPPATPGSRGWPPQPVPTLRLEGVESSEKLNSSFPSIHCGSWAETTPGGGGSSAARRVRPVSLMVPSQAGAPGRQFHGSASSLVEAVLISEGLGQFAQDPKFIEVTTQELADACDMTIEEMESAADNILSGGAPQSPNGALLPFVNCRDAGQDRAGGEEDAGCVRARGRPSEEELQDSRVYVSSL
recorded_metric: inhibition at 10 µM (%)
Give a bare numeral; the unit % is implied.

[[record]]
molecule = "Cc1cc(C)c2nc(C)cc(NCCc3ccccc3)c2c1"
recorded_metric = "inhibition at 10 µM"
test_result = 10

[[record]]
molecule = "O=C(Nc1cccc(C(F)(F)F)c1)N1CCN(c2cccc(C(F)(F)F)c2)CC1"
recorded_metric = "inhibition at 10 µM"
test_result = 65

[[record]]
molecule = "OC1(c2ccc(Cl)cc2)CCN(Cc2c[nH]c3ccccc23)CC1"
recorded_metric = "inhibition at 10 µM"
test_result = 39

[[record]]
molecule = "NC(N)=NC(=O)c1nc(Cl)c(N2CCCCCC2)nc1N"
recorded_metric = "inhibition at 10 µM"
test_result = 4


Note: attention shifts to another entry.
Record summary for CCN(CC)CCNC(=O)C1CCN(c2ccc3nnc(-c4cccc(C)c4)n3n2)CC1 : reported inhibition at 10 µM = -9
